Each entry below lists one item and its recorded Kd value.
assay_system: T1, CCL14_HUMAN (Homo sapiens, UniProt Q16627)
T1 sequence (Q16627 20-93): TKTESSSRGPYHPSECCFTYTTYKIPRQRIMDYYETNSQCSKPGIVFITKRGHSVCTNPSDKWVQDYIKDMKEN
method_summary: Biolayer interferometry (BLI) binding
endpoint_label: Kd (nM)

[
  {
    "molecule": "P1243_AMBAM: tick CKBP, Amblyomma americanum; AAM-02 stated identical (protein, listed as Amblyomma americanum) RNHTEDNSTEYYDYEEARCACPARHLNNTNGTVLKLLGCHYFCNGTLCTAPDGYPCYNLTAQQVRTLTTYPNTSCAVGVCMKGTCVKNGTMEQCFKTP",
    "experimental_value": 0.816
  },
  {
    "molecule": "P672_RHIPU: tick CKBP, Rhipicephalus pulchellus (protein, listed as Rhipicephalus pulchellus) VCEVSEQEGVGEDNATEDEDYEDFFKPVTCYFANSTVGPLRPPNCTVVCTNNTAWWNDTKSDGGHCYSEYRPEKRTHSREIYNCTIGVCGNGTCIANHTYADCW",
    "experimental_value": 5.5
  },
  {
    "molecule": "P991_AMBCA: tick CKBP, Amblyomma cajennense (protein, Amblyomma cajennense) ENGEGTTQPDYDNSTDYYNYEDFKCTCPAPHLNNTNGTVMKPIGCYYTCNVTRCTAPDTYPCYNLTEHQAKNLTTSPTTLCAVGNCDHGICVPNGTKELCFKAPNLEE",
    "experimental_value": 0.43
  }
]
